Consider the following molecules; for each one, report its Ratio IC50.
Assay: Selectivity index, ratio of CC50 for rat L6 cells to IC50 for Trypanosoma brucei rhodesiense STIB900
Assay type: functional
Field format: numeric only.

*Q* Form field: reported Ratio IC50 of CN(C)C12CCNC(C(c3ccccc3)C1)C(c1ccccc1)C2.Cl (racemic)
*A* 181

*Q* # repeat for Cl.Clc1ccc(C2CC3(N4CCCCC4)CCNC2C(c2ccc(Cl)cc2)C3)cc1 (racemic)
*A* 124

*Q* # repeat for CN(C)C12CCNC(C(c3ccc(Cl)cc3)C1)C(c1ccc(Cl)cc1)C2.Cl (racemic)
*A* 143

*Q* # repeat for Cl.O=C1CC2(N3CCCC3)CC(c3ccccc3)C(N1)C(c1ccccc1)C2 (racemic)
*A* 6.6

*Q* # repeat for Cl.c1ccc(C2CC3(N4CCCC4)CNCC2C(c2ccccc2)C3)cc1 (racemic)
*A* 72.9

*Q* # repeat for Cl.c1ccc(C2CC3(N4CCCCC4)CCNC2C(c2ccccc2)C3)cc1 (racemic)
*A* 13.7

*Q* # repeat for CN(C)C12CNCC(C(c3ccccc3)C1)C(c1ccccc1)C2.Cl (racemic)
*A* 77.3

*Q* # repeat for Cl.O=C1CC2(N3CCOCC3)CC(c3ccccc3)C(N1)C(c1ccccc1)C2 (racemic)
*A* 1.7

*Q* # repeat for Cl.Clc1ccc(C2CC3(N4CCCC4)CCNC2C(c2ccc(Cl)cc2)C3)cc1 (racemic)
*A* 152

Numbers sourced from ChEMBL document CHEMBL3400138.
